# Experiment notes: Clearance in Beagle dog at 27.2 uM/kg, po or 1.4 uM/kg, iv
# Type: ADME, organism-based, Canis lupus familiaris
# Test conditions: in vivo
Measured endpoint: clearance (mL/min/kg)

1. Cc1nc(C)c(-c2ccc(C3CCC(CC(=O)O)CC3)cc2)nc1C(N)=O (stereo unspecified) [AZD-7687]
1.2

* * *

# Experiment notes: Fraction unbound in human plasma at 37 degC by LC-UV/MS method based equilibrium dialysis method
The entries below come with measured fraction unbound values attached.
Measured endpoint: fraction unbound

1. Cc1nc(C)c(-c2ccc([C@H]3CC[C@H](CC(=O)NC(C)(C)C(=O)O)CC3)cc2)nc1C(N)=O
0.078
2. Cc1nc(C)c(-c2ccc(C3CCC(CC(=O)O)CC3)cc2)nc1C(N)=O (stereo not drawn)
0.047
3. NC(=O)c1cncc(-c2ccc([C@H]3CC[C@H](CC(=O)O)CC3)cc2)n1
0.035

All figures here come from ChEMBL document CHEMBL2176918.
